# assayDetails: NCI Yeast Anticancer Drug Screen. Data for the mec2-1 strain (AID 157)
# particulars: S. cerevisiae mec2-1 strain, at 50.0 µM, hits give high values
This is part of a sample that, as a whole, favours compounds with a hit. Of some 79,000 tested, about 15% had one in any assay.
assayMetric: growth inhibition (%)
Give just the numeric value; % need not be written.

These solved cases illustrate the format of a correct answer.
{"compound": "Cc1cc2c3ccc(C)[n+](C)c3ccc2n1C", "measured": 5.9}
{"compound": "O=C(CCCl)OCCOc1ccccc1", "measured": 4.3}

# get_value(readout='growth inhibition', item= Cc1ccc([N+](=O)[O-])c(C)n1 )
-23.1

Can you handle COc1ccc(/C=C\C(=O)/C=C/c2ccc(OC)cc2)cc1 next?
7.05

Try c1ccc(Oc2c3ccccc3nc3ccccc23)cc1 next.
-18.4

CC(c1ccccc1)N(C)C (stereo not drawn) ?
-1.8

Now try COC1OC(C(COC(C)=O)OC(C)=O)C(OC(C)=O)C(OC(C)=O)C1OC(C)=O (stereo not drawn) .
1.75

Again, but for Clc1cccc(Cl)c1CSc1nc2ccccc2n2cccc12
-26.8

Moving on to the next compound: CCNCC(C)(C)O
-3.8

---

# assayDetails: NCI Yeast Anticancer Drug Screen. Data for the rad50 strain (AID 155);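 also: 0% = growth of vehicle-only cultures of the same strain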
# particulars: S. cerevisiae rad50 strain growth inhibition; at 50.0 µM; hits give high values
The panel holds about 79,000 compounds, 15% with a hit somewhere; the sample as a whole holds those more often.
Reported growth inhibition values for a set of compounds
Value expressed in %; do not type the unit.

{"compound": "O=C(OCC1CCCO1)c1ccc([N+](=O)[O-])cc1 (configuration not stated)", "measured": 2.05}
{"compound": "CN1CCCN(C(c2ccccc2)c2ccc(Br)cc2)CC1 (configuration not stated)", "measured": 40}
{"compound": "Cc1cc(C(=O)NN)c(C#N)c(=O)[nH]1", "measured": 2.2}
{"compound": "CC(CO)(CO)C(=O)O", "measured": 4.35}
{"compound": "CCOP(=O)(NC(c1ccccc1)c1ccccc1)OCC", "measured": 21.9}
{"compound": "Cc1cc(=O)n(Nc2ccccc2)c(O)c1C#N", "measured": 3.45}
{"compound": "Cc1ccc(S(=O)(=O)Oc2ccc3sc4c(CO)ccc(NCCN(C)C)c4c(=O)c3c2)cc1", "measured": 6.05}
{"compound": "C/C(=N\\Nc1ccc([N+](=O)[O-])cc1[N+](=O)[O-])c1ccc(Br)cc1", "measured": -8.7}

What value of growth inhibition has been reported for the following compound? CCOC(=O)/C(O)=C(\C=N\C(=S)Nc1ccc(Cl)c(Cl)c1)C(=O)OCC
43.6

Also check Oc1ccc(CCC2CCNc3ccccc32)cc1 (configuration not stated)
0.35

Moving on to the next compound: COC(c1ccc2c(c1)OCO2)C(C)Br (configuration not stated)
7.45

Query ClCC(Cl)C1CCC(Cl)C(Cl)C1 (configuration not stated) next
10.5

---

# assayDetails: NCI Yeast Anticancer Drug Screen. Data for the bub3 strain (AID 167)
# particulars: S. cerevisiae bub3 mutant strain, at 50.0 µM, hits give high values
The panel holds about 79,000 compounds, 15% with a hit somewhere; the sample as a whole holds those more often.
Listed next: entries and their corresponding growth inhibition.
A number alone suffices; assume %.

Would you please look over these solved cases?
{"compound": "COc1ccc(/C=N/NC(=O)COCC(=O)N/N=C/c2ccc(OC)cc2)cc1", "growth inhibition, %": -33}
{"compound": "Cc1ccc(S(=O)(=O)NC(=O)NCCSSCCNC(=O)NS(=O)(=O)c2ccc(C)cc2)cc1", "growth inhibition, %": 18.6}

What growth inhibition value was documented for this compound, COc1cc(N)c2ncccc2c1Cl ?
-7.3

Request: CC1(C)CCC(C)(C)NC(=S)N1
13.5

// next record Nc1nc(N)nc(N2CCCCC2)n1
-4.25

Try Cc1nc(C)c(C(=O)O)cc1C(=O)O next.
21.4

Also CCN(C(=O)Nc1ccccc1Cl)c1ccccc1 ?
7.8

Same thing, different compound: CC(=O)Nc1ccc(/C=C2\SC(=S)N(/C=C(\C(C)=O)C(N)=O)C2=O)cc1
-5

What about CC(C)c1ncc([N+](=O)[O-])n1C ?
6.15

Okay, and O=C(c1ccccc1O)N1CCCC1 ?
2.15

// same read-out, input: CCOc1ccccc1NC(=O)CCl
18.9

And for C=CC1=NC(C)(C)CC(C)O1 (stereo unspecified) ?
11.5

Entry C=CCC(OC(C)=O)c1ccc(OC)c(OC)c1 (stereo unspecified) please
8.7

Request: CC12CCC3c4ccc(O)cc4CCC3C1CCC2=O (stereo unspecified)
18.5

Do the same for COC(=O)Cc1cc(COC(C)=O)ccc1C please
-17.2

Now consider c1ccc2c(NCCCN3CCN(CCCNc4c5ccccc5nc5ccccc45)CC3)c3ccccc3nc2c1 and answer again.
22.2

Okay, and CCCCCCCCCCCCCCCCOc1ccccc1NC(=O)CC(C)=O ?
-5.3

# repeat for C=CCc1cc(OC)c(OC)c(OC)c1
-9.7

Thanks! And COc1nc(Nc2cccc(C(F)(F)F)c2)nc(OC)n1 ?
23.2

Now try O=S(Cc1ccccc1)/C(=C/NC(=S)Nc1ccccc1)c1ccccc1 (stereo unspecified) .
-16.9

Could you do the same for CCOC(=O)CSCCC#N , please?
1.75

Then this compound: ON1CCCC1
6.4

Same for Cc1ccc(S(N)(=O)=O)cc1Cl
-1.5

What about this compound? O=C(NCc1ccccc1)c1cccc([N+](=O)[O-])c1
22.9

Lookup COc1cc(OC)c(NC(=O)C(Sc2nc(C)cc(C)c2C#N)c2ccccc2)cc1Cl (stereo unspecified)
1.6

Next: CC(=O)O[C@H]1CC[C@]2(C)C3=C(C(=O)C[C@H]2C1(C)C)[C@]1(C)CC[C@H]([C@H](C)CCC(=O)O)[C@@]1(C)CC3=O
2.05

---

# assayDetails: NCI Yeast Anticancer Drug Screen. Data for the sgs1 mgt1 strain (AID 161);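 also: 0% = growth of cultures given vehicle only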
# particulars: S. cerevisiae sgs1 mgt1 strain, at 50.0 µM, hits give high values
Compounds without any hit were thinned out: in the full panel of roughly 79,000, 15% have a hit.
assayMetric: growth inhibition (%)
Write the answer as a number in %, unit excluded.

Observe how each entry below is paired with its result.
{"molecule": "NC(=O)NCCO", "growth inhibition, %": 13.8}
{"molecule": "O=c1nc(Nc2cccc(Cl)c2)oc2cc(Cl)oc(=O)c12", "growth inhibition, %": 51.8}
{"molecule": "CC1(C)OC(=O)CC1=O", "growth inhibition, %": 0.55}
{"molecule": "CCOC(=O)C(=O)CC(=O)c1ccccc1", "growth inhibition, %": -5.75}
{"molecule": "CC(C)N(CCCC#N)C(C)C", "growth inhibition, %": -5.25}

Please look up its growth inhibition: C1=NCCc2ccccc21
-8.25

Consider next the molecule CCOc1ccncc1[N+](=O)[O-] in the same way.
3.25

---

# assayDetails: NCI Yeast Anticancer Drug Screen. Data for the rad50 strain (AID 155);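 also: 0% = growth of vehicle-only cultures of the same strain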
# particulars: S. cerevisiae rad50 strain growth inhibition; at 50.0 µM; hits give high values
About 79,000 compounds went through this panel and 15% of them were active in at least one assay; those are over-represented in the sample as a whole.
Catalogue of growth inhibition values
Numbers only here, please. The scale is %.

Recorded growth inhibition, per entry:
{"molecule": "O=[N+]([O-])c1c(Cl)ncnc1Cl", "unitSymbol": "%", "growth inhibition": -52.5}
{"molecule": "NNc1ncnc2nc[nH]c12", "unitSymbol": "%", "growth inhibition": -20.4}
{"molecule": "Cc1cc(Cl)cc(Cc2cc(Cl)cc(C)c2O)c1O", "unitSymbol": "%", "growth inhibition": 50.1}
{"molecule": "Cc1cc(C(=O)c2ccccc2)cc(C)c1O", "unitSymbol": "%", "growth inhibition": 12.2}
{"molecule": "BrCc1cccc(C[P+](c2ccccc2)(c2ccccc2)c2ccccc2)c1", "unitSymbol": "%", "growth inhibition": 66}

Query (molecule): CCOc1ccc(NC(=S)N2CCC(CCCC3CCN(C(=S)Nc4ccc(OCC)cc4)CC3)CC2)cc1 ; field requested: growth inhibition
-6.6

Same question for O=S(=O)(c1ccc(NC(=S)NCc2cccnc2)cc1)N1CCCCC1 please.
21.9

Would you mind doing Cn1c(=O)[nH]c2ccccc2c1=O as well?
-1

Param item: NNC(=O)N/N=C1\C(=O)N(c2nccs2)C(=O)C(=O)C1c1nc2ccccc2s1 (stereo unspecified)
-26.1

---

# assayDetails: NCI Yeast Anticancer Drug Screen. Data for the bub3 strain (AID 167)
# particulars: S. cerevisiae bub3 mutant strain, at 50.0 µM, hits give high values
This is part of a sample that, as a whole, favours compounds with a hit. Of some 79,000 tested, about 15% had one in any assay.
assayMetric: growth inhibition (%)
Use % as the unit, but write only the number.

Query: growth inhibition; subject: CC(=O)c1cc(O)ccc1O
-2.6

Same thing, different compound: Cc1ccc(C)c(CCO)c1
-21.4
